assay: total protein half-life in vivo (active degradation + dilution); higher = more stable protein; conditions: E. coli NCM3722 delta-lon; growth: N-lim chemostat; doubling time 6 h
measure name: total protein half-life in vivo (h)
Report the value in h with no unit label.

As a guide, the following entries are already answered.
>  <ordered residues>
MATLKDIAIEAGVSLATVSRVLNDDPTLNVKEETKHRILEIAEKLEYKTSSARKLQTGAVNQHHILAIYSYQQELEINDPYYLAIRHGIETQCEKLGIELTNCYEHSGLPDIKNVTGILIVGKPTPALRAAASALTDNICFIDFHEPGSGYDAVDIDLARISKEIIDFYINQGVNRIGFIGGEDEPGKADIREVAFAEYGRLKQVVREEDIWRGGFSSSSGYELAKQMLAREDYPKALFVASDSIAIGVLRAIHERGLNIPQDISLISVNDIPTARFTFPPLSTVRIHSEMMGSQGVNLVYEKARDGRALPLLVFVPSKLKLRGTTR

>  <total protein half-life in vivo (h)>
5.72

$$$$
>  <ordered residues>
MQKRAIYPGTFDPITNGHIDIVTRATQMFDHVILAIAASPSKKPMFTLEERVALAQQATAHLGNVEVVGFSDLMANFARNQHATVLIRGLRAVADFEYEMQLAHMNRHLMPELESVFLMPSKEWSFISSSLVKEVARHQGDVTHFLPENVHQALMAKLA [P0A6I6]

>  <total protein half-life in vivo (h)>
5.58

$$$$
>  <ordered residues>
MIRNVLLAFMICSGMTLLGGCSSVMSHTGGKEGTYPGTRASATMIGDDETNWGTKSLAILDMPFTAVMDTLLLPWDVFRKDSSVRSRVEKSEANAQATNAVIPPARMPDN [P0ADM4]

>  <total protein half-life in vivo (h)>
5.9

$$$$
>  <ordered residues>
MVLWQSDLRVSWRAQWLSLLIHGLVAAVILLMPWPLSYTPLWMVLLSLVVFDCVRSQRRINARQGEIRLLMDGRLRWQGQEWSIVKAPWMIKSGMMLRLRSDGGKRQHLWLAADSMDEAEWRDLRRILLQQETQR

>  <total protein half-life in vivo (h)>
4.15

$$$$
>  <ordered residues>
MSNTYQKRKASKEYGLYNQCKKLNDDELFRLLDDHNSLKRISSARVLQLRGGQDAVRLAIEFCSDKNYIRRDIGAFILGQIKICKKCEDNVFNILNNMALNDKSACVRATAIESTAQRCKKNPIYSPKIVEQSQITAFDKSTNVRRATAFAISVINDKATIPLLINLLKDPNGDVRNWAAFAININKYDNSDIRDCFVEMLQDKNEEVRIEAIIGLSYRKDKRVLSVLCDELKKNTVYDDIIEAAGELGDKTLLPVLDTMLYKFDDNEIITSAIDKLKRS [P0ADK6]

>  <total protein half-life in vivo (h)>
2.68

$$$$
>  <ordered residues>
MTEAQRHQILLEMLAQLGFVTVEKVVERLGISPATARRDINKLDESGKLKKVRNGAEAITQQRPRWTPMNLHQAQNHDEKVRIAKAASQLVNPGESVVINCGSTAFLLGREMCGKPVQIITNYLPLANYLIDQEHDSVIIMGGQYNKSQSITLSPQGSENSLYAGHWMFTSGKGLTAEGLYKTDMLTAMAEQKMLSVVGKLVVLVDSSKIGERAGMLFSRADQIDMLITGKNANPEILQQLEAQGVSILRV [P0A9W0]

>  <total protein half-life in vivo (h)>
5.66

$$$$

For MALLPDKEKLLRNFLRCANWEEKYLYIIELGQRLPELRDEDRSPQNSIQGCQSQVWIVMRQNAQGIIELQGDSDAAIVKGLIAVVFILYDQMTPQDIVNFDVRPWFEKMALTQHLTPSRSQGLEAMIRAIRAKAAALS the sequence record lists total protein half-life in vivo as 5.07

###

test: total protein half-life in vivo (active degradation + dilution); higher = more stable protein; conditions: wild type E. coli NCM3722; growth: N-lim chemostat; doubling time 6 h
// reported total protein half-life in vivo per item
Report the value in h with no unit label.

As a guide, the following entries are already answered.
>  <ordered residues>
MKKNQFLKESDVTAESVFFMKRRQVLKALGISATALSLPHAAHADLLSWFKGNDRPPAPAGKALEFSKPAAWQNNLPLTPADKVSGYNNFYEFGLDKADPAANAGSLKTDPWTLKISGEVAKPLTLDHDDLTRRFPLEERIYRMRCVEAWSMVVPWIGFPLHKLLALAEPTSNAKYVAFETIYAPEQMPGQQDRFIGGGLKYPYVEGLRLDEAMHPLTLMTVGVYGKALPPQNGAPVRLIVPWKYGFKGIKSIVSIKLTRERPPTTWNLAAPDEYGFYANVNPYVDHPRWSQATERFIGSGGILDVQRQPTLLFNGYAAQVASLYRGLDLRENF

>  <measure name>
total protein half-life in vivo

>  <reported result>
5.79

$$$$
>  <ordered residues>
MAVQKNVIKGILAGTFALMLSGCVTVPDAIKGSSPTPQQDLVRVMSAPQLYVGQEARFGGKVVAVQNQQGKTRLEIATVPLDSGARPTLGEPSRGRIYADVNGFLDPVDFRGQLVTVVGPITGAVDGKIGNTPYKFMVMQVTGYKRWHLTQQVIMPPQPIDPWFYGGRGWPYGYGGWGWYNPGPARVQTVVTE [P0AA91]

>  <measure name>
total protein half-life in vivo

>  <reported result>
6.52

$$$$
>  <ordered residues>
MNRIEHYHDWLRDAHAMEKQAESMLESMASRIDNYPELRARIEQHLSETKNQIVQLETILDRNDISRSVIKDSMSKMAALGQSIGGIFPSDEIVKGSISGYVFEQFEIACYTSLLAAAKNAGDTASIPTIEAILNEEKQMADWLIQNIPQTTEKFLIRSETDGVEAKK

>  <measure name>
total protein half-life in vivo

>  <reported result>
4.14

$$$$
>  <ordered residues>
MSAQKPGLHPRNRHHSRYDLATLCQVNPELRQFLTLTPAGEQSVDFANPLAVKALNKALLAHFYAVANWDIPDGFLCPPVPGRADYIHHLADLLAEASGTIPANASILDIGVGANCIYPLIGVHEYGWRFTGSETSSQALSSAQAIISSNPGLNRAIRLRRQKESGAIFNGIIHKNEQYDATLCNPPFHDSAAAARAGSERKRRNLGLNKDDALNFGGQQQELWCEGGEVTFIKKMIEESKGFAKQVMWFTSLVSRGENLPPLYRALTDVGAVKVVKKEMAQGQKQSRFIAWTFMNDEQRRRFVNRQR

>  <measure name>
total protein half-life in vivo

>  <reported result>
4.81

$$$$

Could you now consider this next sequence?
For MQSVDVAIVGGGMVGLAVACGLQGSGLRVAVLEQRVQEPLAANAPPQLRVSAINAASEKLLTRLGVWQDILSRRASCYHGMEVWDKDSFGHISFDDQSMGYSHLGHIVENSVIHYALWNKAHQSSDITLLAPAELQQVAWGENETFLTLKDGSMLTARLVIGADGANSWLRNKADIPLTFWDYQHHALVATIRTEEPHDAVARQVFHGEGILAFLPLSDPHLCSIVWSLSPEEAQRMQQASEDEFNRALNIAFDNRLGLCKVESARQVFPLTGRYARQFASHRLALVGDAAHTIHPLAGQGVNLGFMDAAELIAELKRLHRQGKDIGQYIYLRRYERSRKHSAALMLAGMQGFRDLFSGTNPAKKLLRDIGLKLADTLPGVKPQLIRQAMGLNDLPEWLR the sequence record lists total protein half-life in vivo as 4.1

###

assay: total protein half-life in vivo (active degradation + dilution); higher = more stable protein; settings: wild type E. coli NCM3722; growth: N-lim chemostat; doubling time 6 h
measure name: total protein half-life in vivo (h)
Report the value in h with no unit label.

As a guide, the following entries are already answered.
>  <ordered residues>
MYHDVSYLLSRLINGPLSLRQIYFASSNGPVPDLAYQVDFPRLEIVLEGEFVDTGAGATLVPGDVLYVPAGGWNFPQWQAPATTFSVLFGKQQLGFSVVQWDGKQYQNLAKQHVARRGPRIGSFLLQTLNEMQMQPQEQQTARLIVASLLSHCRDLLGSQIQTASRSQALFEAIRDYIDERYASALTRESVAQAFYISPNYLSHLFQKTGAIGFNEYLNHTRLEHAKTLLKGYDLKVKEVAHACGFVDSNYFCRLFRKNTERSPSEYRRQYHSQLTEKPTTPE

>  <total protein half-life in vivo, h>
3.8

$$$$
>  <ordered residues>
MKKMLLATALALLITGCAQQTFTVQNKQTAVAPKETITHHFFVSGIGQKKTVDAAKICGGAENVVKTETQQTFVNGLLGFITLGIYTPLEARVYCSK

>  <total protein half-life in vivo, h>
6.71

$$$$
>  <ordered residues>
MIKVLIVDDEPLARENLRVFLQEQSDIEIVGECSNAVEGIGAVHKLRPDVLFLDIQMPRISGLEMVGMLDPEHRPYIVFLTAFDEYAIKAFEEHAFDYLLKPIDEARLEKTLARLRQERSKQDVSLLPENQQALKFIPCTGHSRIYLLQMKDVAFVSSRMSGVYVTSHEGKEGFTELTLRTLESRTPLLRCHRQYLVNLAHLQEIRLEDNGQAELILRNGLTVPVSRRYLKSLKEAIGL [P0AFT5]

>  <total protein half-life in vivo, h>
5.02

$$$$
>  <ordered residues>
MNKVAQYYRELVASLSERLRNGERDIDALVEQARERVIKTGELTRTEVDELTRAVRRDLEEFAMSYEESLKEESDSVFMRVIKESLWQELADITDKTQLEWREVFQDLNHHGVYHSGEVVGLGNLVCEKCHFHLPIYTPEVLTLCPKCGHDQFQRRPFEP [P0AAT9]

>  <total protein half-life in vivo, h>
3.87

$$$$
>  <ordered residues>
MQKVVLATGNVGKVRELASLLSDFGLDIVAQTDLGVDSAEETGLTFIENAILKARHAAKVTALPAIADDSGLAVDVLGGAPGIYSARYSGEDATDQKNLQKLLETMKDVPDDQRQARFHCVLVYLRHAEDPTPLVCHGSWPGVITREPAGTGGFGYDPIFFVPSEGKTAAELTREEKSAISHRGQALKLLLDALRNG

>  <total protein half-life in vivo, h>
4

$$$$

Could you now consider this next sequence?
For MIDYTAAGFTLLQGAHLYAPEDRGICDVLVANGKIIAVASNIPSDIVPNCTVVDLSGQILCPGFIDQHVHLIGGGGEAGPTTRTPEVALSRLTEAGVTSVVGLLGTDSISRHPESLLAKTRALNEEGISAWMLTGAYHVPSRTITGSVEKDVAIIDRVIGVKCAISDHRSAAPDVYHLANMAAESRVGGLLGGKPGVTVFHMGDSKKALQPIYDLLENCDVPISKLLPTHVNRNVPLFEQALEFARKGGTIDITSSIDEPVAPAEGIARAVQAGIPLARVTLSSDGNGSQPFFDDEGNLTHIGVAGFETLLETVQVLVKDYDFSISDALRPLTSSVAGFLNLTGKGEILPGNDADLLVMTPELRIEQVYARGKLMVKDGKACVKGTFETA the sequence record lists total protein half-life in vivo as 5.29

Source listed as the supplement of paper PMC11246515.
